Hi there, I'd appreciate the recorded IC50 for every entry that follows.
Only the number, expressed in nM, is required.

Tested system PKC theta (Homo sapiens); IC50 recorded for `CC1(C)CC(Nc2nc(Nc3cccc(C#N)c3)ncc2F)CC(C)(C)N1` was 38.7

Tested system PKC theta (Homo sapiens); IC50 recorded for `Cc1ccc(Nc2ncc(F)c(NC3CC(C)(C)N(C)C(C)(C)C3)n2)cc1-c1ccoc1` was 4.74

Tested system PKC theta (Homo sapiens); IC50 recorded for `CN1CCN(c2ccc(Nc3ncc(F)c(NC4CC(C)(C)N(C)C(C)(C)C4)n3)cc2)CC1` was 226

Tested system PKC theta (Homo sapiens); IC50 recorded for `CN1C(C)(C)CC(Nc2nc(Nc3cc(-c4cnn(C)c4)cc(C(F)(F)F)c3)ncc2F)CC1(C)C` was 82.9

Tested system PKC theta (Homo sapiens); IC50 recorded for `COc1ccc(Nc2ncc(F)c(NC3CC(C)(C)N(C)C(C)(C)C3)n2)cc1Cl` was 5

Tested system PKC theta (Homo sapiens); IC50 recorded for `CN1C(C)(C)CC(Nc2nc(Nc3ccc(-c4ccoc4)c(C(F)(F)F)c3)ncc2F)CC1(C)C` was 45.7

Tested system PKC theta (Homo sapiens); IC50 recorded for `Cc1nnnn1-c1cccc(Nc2ncc(C#N)c(NC3CC(C)(C)NC(C)(C)C3)n2)c1` was 3.6

Tested system PKC theta (Homo sapiens); IC50 recorded for `CN1C(C)(C)CC(Nc2nc(Nc3ccc(-c4cccnc4)c(C#N)c3)ncc2F)CC1(C)C` was 1.41

----------
System: Human primary T cells
Assay: IL-2 ELISA, Human Primary T Cell, Anti-CD3+CD28+ (Example 3)
Assay type: cell-based
Details: anti-CD3+CD28 stimulation, 24 hours, citrate salt
Counter-ions that a name gives are not always drawn.
measure.name: pIC50
Friendly reminder that pIC50 comes from taking -log10 of the concentration in mol/L.

Entry under test: COc1ccc(Nc2ncc(F)c(NC3CC(C)(C)N(C)C(C)(C)C3)n2)cc1OC(F)F [Compound I-359, citrate salt] . Its pIC50 was 6.93

----------
Test system: Human primary T cells
Assay: IL-2 ELISA, Human Primary T Cell, Anti-CD3+CD28+ (Example 3)
Type: cell-based
Conditions: Homo sapiens, T-cell, 24 h, anti-CD3+CD28 stimulation
// returns f unless IC50 is strictly below 300 nM, in which case t

Please let me know if `CCOc1ccc(Nc2ncc(C#N)c(NC3CC(C)(C)NC(C)(C)C3)n2)cc1-n1nnnc1CC` shows IC50 below 300 nM.
t

Please let me know if `CCN1C(=O)C(C)(C)Oc2cc(Nc3ncc(C(F)(F)F)c(NC4CC(C)(C)N(C)C(C)(C)C4)n3)ccc21` shows IC50 below 300 nM.
t

Please let me know if `CN1C(C)(C)CC(Nc2nc(Nc3ccc(N4CCN(S(=O)(=O)C5CC5)CC4)c(Cl)c3)ncc2F)CC1(C)C` shows IC50 below 300 nM.
t

Please let me know if `CN1C(C)(C)CC(Nc2nc(Nc3nc4ccc(F)cc4s3)ncc2F)CC1(C)C` shows IC50 below 300 nM.
f

Please let me know if `COC(=O)CCN1C(C)(C)CC(Nc2nc(Nc3ccc(OC)c(Cl)c3)ncc2F)CC1(C)C` shows IC50 below 300 nM.
f

Please let me know if `CC(C)n1c(=O)oc2cc(Nc3ncc(F)c(NC4CC(C)(C)N(C)C(C)(C)C4)n3)ccc21` shows IC50 below 300 nM.
t

Please let me know if `COc1ccc(Nc2ncc(F)c(N(Cc3ccccc3)C3CC(C)(C)N(C)C(C)(C)C3)n2)cc1OC(F)F` shows IC50 below 300 nM.
f
